The molecules listed here are annotated with their Ratio EC50.
Species: Homo sapiens
Test: Selectivity ratio of EC50 for human vasopressin V1b receptor to EC50 for human vasopressin V1a receptor
Bridge positions count the residues as written; N and C are the ends. Square brackets hold non-standard residues; d marks the D form. Peptide text beside a SMILES is read from it. Ala(2-furyl) = N[C@@H](Cc1ccco1)C(=O)O; Orn(iPr) = CC(C)NCCC[C@H](N)C(=O)O; 2Thi = N[C@@H](Cc1cccs1)C(=O)O; Orn = NCCC[C@H](N)C(=O)O; Dab = NCC[C@H](N)C(=O)O
Give only the figure.

Please give the measured Ratio EC50 for this molecule: CCNC(=O)C[C@@H]1NC(=O)[C@H]([C@@H](C)CC)NC(=O)[C@H](Cc2ccccc2)NC(=O)[C@@H](N)CSSC[C@@H](C(=O)N2CCC[C@H]2C(=O)N[C@@H](CCN)C(=O)NCC(N)=O)NC(=O)[C@H](CC(N)=O)NC1=O (H-CFID(NHEt)NCP[Dab]G-NH2; disulfide 1-6)
7.7

Do the same for CC[C@H](C)[C@@H]1NC(=O)[C@H](Cc2ccco2)NC(=O)[C@@H](N)CSSC[C@@H](C(=O)N2CCC[C@H]2C(=O)N[C@@H](CCCNC(C)C)C(=O)NCC(N)=O)NC(=O)[C@H](CC(N)=O)NC(=O)[C@H](CC(N)=O)NC1=O (H-C[Ala(2-furyl)]INNCP[Orn(iPr)]G-NH2; disulfide 1-6) please
120

Ok, now CC[C@H](C)[C@@H]1NC(=O)[C@H](Cc2ccccc2)NC(=O)[C@@H](N)CSSC[C@@H](C(=O)N2CCC[C@H]2C(=O)N[C@@H](CCN)C(=O)NCC(N)=O)NC(=O)[C@H](CC(N)=O)NC(=O)[C@H](CCC(N)=O)NC1=O (H-CFIQNCP[Dab]G-NH2; disulfide 1-6)
52

One more molecule: CC[C@H](C)[C@@H]1NC(=O)[C@H](Cc2ccco2)NC(=O)[C@@H](N)CSSC[C@@H](C(=O)N2CCC[C@H]2C(=O)N[C@@H](CCN)C(=O)NCC(N)=O)NC(=O)[C@H](CC(N)=O)NC(=O)[C@H](CCC(N)=O)NC1=O (H-C[Ala(2-furyl)]IQNCP[Dab]G-NH2; disulfide 1-6)
95

Also CC[C@H](C)[C@@H]1NC(=O)[C@H](Cc2cccs2)NC(=O)[C@@H](N)CSSC[C@@H](C(=O)N2CCC[C@H]2C(=O)N[C@@H](CCCN)C(=O)NCC(N)=O)NC(=O)[C@H](CC(N)=O)NC(=O)[C@H](CC(N)=O)NC1=O (H-C[2Thi]INNCP[Orn]G-NH2; disulfide 1-6) , if possible.
14

###

List of Ratio EC50 values.
Species on record: Homo sapiens
Assay: Selectivity ratio of EC50 for human oxytocin receptor to EC50 for human vasopressin V1a receptor
Numbered stars: 1 amine (or outer) side, 2 acyl side, 3 side chain; on linkers, the order of the positions; unused ones are H or OH. Bridge positions count the residues as written; N and C are the ends. Square brackets hold non-standard residues; d marks the D form. Peptide text beside a SMILES is read from it. X1 = CCNCCC[C@H](N[*:1])C(=O)[*:2]; 2Thi = N[C@@H](Cc1cccs1)C(=O)O; Cha = N[C@@H](CC1CCCCC1)C(=O)O; Dab = NCC[C@H](N)C(=O)O

Example molecules with recorded Ratio EC50:
Name the reported Ratio EC50 value associated with the molecule CCNC(=O)C[C@@H]1NC(=O)[C@H]([C@@H](C)CC)NC(=O)[C@H](Cc2ccccc2)NC(=O)[C@@H](N)CSSC[C@@H](C(=O)N2CCC[C@H]2C(=O)N[C@@H](CCN)C(=O)NCC(N)=O)NC(=O)[C@H](CC(N)=O)NC1=O (H-CFID(NHEt)NCP[Dab]G-NH2; disulfide 1-6)
> 3700

Also need CC[C@H](C)[C@@H]1NC(=O)[C@H](CC2CCCCC2)NC(=O)[C@@H](N)CSSC[C@@H](C(=O)N2CCC[C@H]2C(=O)N[C@@H](CCN)C(=O)NCC(N)=O)NC(=O)[C@H](CC(N)=O)NC(=O)[C@H](CC(N)=O)NC1=O (H-C[Cha]INNCP[Dab]G-NH2; disulfide 1-6) , thanks.
> 6200

Request: CC[C@H](C)[C@@H]1NC(=O)[C@H](Cc2cccs2)NC(=O)[C@@H](N)CSSC[C@@H](C(=O)N2CCC[C@H]2C(=O)N[C@@H](CCN)C(=O)NCC(N)=O)NC(=O)[C@H](CC(N)=O)NC(=O)[C@H](CC(N)=O)NC1=O (H-C[2Thi]INNCP[Dab]G-NH2; disulfide 1-6)
> 830

Consider the record given below.
Quick one: Ratio EC50 for CCNCCC[C@H](NC(=O)[C@@H]1CCCN1C(=O)[C@@H]1CSSC[C@H](N)C(=O)N[C@@H](Cc2ccccc2)C(=O)N[C@@H]([C@@H](C)CC)C(=O)N[C@@H](CC(N)=O)C(=O)N[C@@H](CC(N)=O)C(=O)N1)C(=O)NCC(N)=O (H-CFINNCP[X1]G-NH2; disulfide 1-6) ?
> 10000
